Target: Voltage-gated potassium channel subunit beta-2 (Rattus norvegicus) (UniProt P62483)
Sequence (P62483 whole entry, looked up): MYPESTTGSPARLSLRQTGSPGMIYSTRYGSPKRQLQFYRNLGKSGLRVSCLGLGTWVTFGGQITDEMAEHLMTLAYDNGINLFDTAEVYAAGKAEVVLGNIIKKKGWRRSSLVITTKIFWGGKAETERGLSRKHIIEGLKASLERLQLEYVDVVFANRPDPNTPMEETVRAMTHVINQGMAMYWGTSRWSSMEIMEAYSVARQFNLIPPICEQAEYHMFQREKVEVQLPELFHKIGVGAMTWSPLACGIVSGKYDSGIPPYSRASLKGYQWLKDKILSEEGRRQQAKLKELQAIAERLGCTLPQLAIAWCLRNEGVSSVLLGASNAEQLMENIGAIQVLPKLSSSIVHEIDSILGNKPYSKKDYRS
Assay: KvBeta positive modulators, primary screen, biochemical, NADPH fluorescence (AID 623);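 further: fluorescence intensity change per second fitted from 20 to 320 s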
Conditions: Recombinant KvBeta, NADPH fluorescence decrease slope, 10 min; at 10 µM; stronger effect = lower value
The source made the active and inactive calls.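 How the source made its calls: active means NADPH fluorescence slope more negative than the mean of all samples by about 3 SD, 99.7% confidence; inactive means the rest.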
Recorded Metric: NADPH fluorescence slope

# annotated cases, reported NADPH fluorescence slope shown
Molecule: Cc1csc(SCCn2c(Br)nc3c2c(=O)[nH]c(=O)n3C)n1
System Tested: Voltage-gated potassium channel subunit beta-2 (Rattus norvegicus) (UniProt P62483)
NADPH fluorescence slope: -4.5e-05 (inactive)

Molecule: CCN(CC)c1ccc(NC(=O)c2nc3nc(C)cc(C(F)F)n3n2)cc1
System Tested: Voltage-gated potassium channel subunit beta-2 (Rattus norvegicus) (UniProt P62483)
NADPH fluorescence slope: -3.4e-05 (inactive)

Molecule: O=C(CN1C(=O)c2ccccc2C1=O)OCN1C(=O)c2ccccc2C1=O
System Tested: Voltage-gated potassium channel subunit beta-2 (Rattus norvegicus) (UniProt P62483)
NADPH fluorescence slope: -2.7e-06 (inactive)

Molecule: CCOC(=O)c1ccc(N2C(=O)CC(N3CCN(C/C=C/c4ccccc4)CC3)C2=O)cc1 (centres undefined)
System Tested: Voltage-gated potassium channel subunit beta-2 (Rattus norvegicus) (UniProt P62483)
NADPH fluorescence slope: 1.2e-05 (inactive)

Molecule: CC(C)OC(=O)CSc1nc2cccnc2n1C1CCCCC1
System Tested: Voltage-gated potassium channel subunit beta-2 (Rattus norvegicus) (UniProt P62483)
NADPH fluorescence slope: -5.3e-05 (inactive)

Molecule: CCc1cccc(NC(=O)CCc2nc(-c3cccs3)no2)c1
System Tested: Voltage-gated potassium channel subunit beta-2 (Rattus norvegicus) (UniProt P62483)
NADPH fluorescence slope: -2.7e-05 (inactive)

Molecule: O=C(COC(=O)C1CC1)c1c[nH]c2ccccc12
System Tested: Voltage-gated potassium channel subunit beta-2 (Rattus norvegicus) (UniProt P62483)
NADPH fluorescence slope: -2.6e-05 (inactive)

Molecule: c1cn(CC2(Cn3ccnc3)COC2)cn1
System Tested: Voltage-gated potassium channel subunit beta-2 (Rattus norvegicus) (UniProt P62483)
NADPH fluorescence slope: -1.1e-05 (inactive)

Molecule: Cc1cc(C(=O)NCc2cccnc2)n(-c2ccccc2)n1
System Tested: Voltage-gated potassium channel subunit beta-2 (Rattus norvegicus) (UniProt P62483)
NADPH fluorescence slope: -1.4e-05 (inactive)

Molecule: O=C(CSc1nnc(C2CC2)n1Cc1ccccc1)c1ccc(S(=O)(=O)N2CCOCC2)cc1
System Tested: Voltage-gated potassium channel subunit beta-2 (Rattus norvegicus) (UniProt P62483)
NADPH fluorescence slope: -0.000138 (inactive)

Query block: Recorded NADPH fluorescence slope of "O=C(c1ccc(Br)o1)N1CCN(c2ccc3nnc(-c4ccccc4)n3n2)CC1" , please.
Result block: -3.4e-05 (inactive)

Query block: Recorded NADPH fluorescence slope of "CCOC(=O)CSc1nnc2n1C(C)(C)Cc1ccccc1-2" , please.
Result block: -8.4e-05 (inactive)

----------
Assay: inhibitors of Sendai virus-induced IRF3 signaling, primary screen, TLR/RLR signaling modifier project, cell-based, Sendai virus stimulus, luciferase, 10K MLSCN set (AID 602276);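 further: firefly luciferase from ISG56 promoter only with Renilla not read in this screen; 0% = Sendai virus plus DMSO and 100% = medium plus DMSO without virus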
Settings: HEK293 RL24 IRF3 luciferase reporter, at 10 µM, stronger effect = higher value
Recorded Metric: inhibition (%)
Your answer is read as %, so omit the unit and give the number.

Compound: C=CCOC(=O)COc1ccc2c(C)c(C)c(=O)oc2c1C
Recorded Metric: inhibition
Quantitative Readout: -3.09

Query block: Recorded inhibition of "COc1cccc(NS(=O)(=O)c2ccc3[nH]cc(C(=O)NC4CC4)c(=O)c3c2)c1" , please.
Result block: 13.8

Query block: Recorded inhibition of "O=C1OC2(c3ccccc3)C3CCCC2C13" , please.
Result block: 16

Query block: Recorded inhibition of Cn1c(C(=O)N2CCCC(C(=O)NCCCc3ccccc3)C2)cc2sccc21 (stereo unspecified) , please.
Result block: 0.49

Query block: Recorded inhibition of CCCOc1ccc(N2C(=O)CC(SCCN)C2=O)cc1 (stereo unspecified) , please.
Result block: -37.6

Query block: Recorded inhibition of CC1=CCC(C(C)(C)NC(=O)c2ccccc2)C/C1=N\O (stereo unspecified) , please.
Result block: 17.1

----------
A collection of compounds and their measured NADPH fluorescence slope
Biological target: Voltage-gated potassium channel subunit beta-2 (Rattus norvegicus)
Assay: KvBeta positive modulators, primary screen, biochemical, NADPH fluorescence (AID 623);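 further: fluorescence intensity change per second fitted from 20 to 320 s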
Conditions: Recombinant KvBeta, NADPH fluorescence decrease slope, 10 min; at 10 µM; stronger effect = lower value
No unit in the answer, only the number.

Smiles Entry: O=C(Cn1cc2c(n1)CCCCC2)N1CCc2ccccc21
Recorded Metric: NADPH fluorescence slope
Quantitative Readout: -4.3e-05
//
Smiles Entry: FC(F)(F)c1cccc(N2CCc3cn[nH]c32)c1
Recorded Metric: NADPH fluorescence slope
Quantitative Readout: -6.5e-05
//
Smiles Entry: CCSc1nnc2c(n1)OC=Nc1ccc(Br)cc1-2
Recorded Metric: NADPH fluorescence slope
Quantitative Readout: -3.3e-05
//
Smiles Entry: COc1ccc(Cc2noc(-c3ccc(C)cc3)n2)cc1
Recorded Metric: NADPH fluorescence slope
Quantitative Readout: 3.7e-05
//
Smiles Entry: CN(CC(=O)O)S(=O)(=O)c1cc(Cl)ccc1Cl
Recorded Metric: NADPH fluorescence slope
Quantitative Readout: -5e-05

Moving on to another compound below.
Query block: Recorded NADPH fluorescence slope of "O=C(CSc1nnc(NC(=O)C2CCC2)s1)NC1CC1" , please.
Result block: -4.2e-05

----------
A collection of compounds and their measured nuclei count
Assay: inhibitors of E-selectin induction by TNFa, primary screen, imaging, HUVEC, immunofluorescence, MLSMR starter and 10KST1 sets (AID 487);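 further: 100% = median nuclei count of all wells on the same plate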
Conditions: HUVEC TNFalpha-induced E-selectin immunofluorescence imaging, at 2 µM; measured here: cell number, toxicity
Your answer is read as %, so omit the unit and give the number.

# annotated cases, reported nuclei count shown
Compound: O=C(O)c1cccc(S(=O)(=O)N2CCOCC2)c1
nuclei count (%): 99.4
--
Compound: O=C(Nc1ccc(N2CCOCC2)c(Cl)c1)c1ccc(Br)o1
nuclei count (%): 104

Moving on to another compound below.
Query block: Recorded nuclei count of "COc1ccc(OC)c(S(=O)(=O)Nc2ccccc2SC)c1" , please.
Result block: 85.2

----------
Experiment: inhibitors of E-selectin induction by TNFa, primary screen, imaging, HUVEC, immunofluorescence, MLSMR starter and 10KST1 sets (AID 487);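 further: 100% = median nuclei count of all wells on the same plate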
Conditions: HUVEC TNFalpha-induced E-selectin immunofluorescence imaging, at 2 µM; measured here: cell number, toxicity
Recorded Metric: nuclei count (%)
Your answer is read as %, so omit the unit and give the number.

Molecule: Cc1ccccc1OCC(O)CN (configuration not stated)
Reading Unit: %
Quantitative Readout: 95.6

Query block: Recorded nuclei count of "O=C(c1ccccc1)c1cc(-c2ccccc2)on1" , please.
Result block: 118

Query block: Recorded nuclei count of "O=C(OCc1cc2ccccc2[nH]c1=O)c1ccco1" , please.
Result block: 96.9

Query block: Recorded nuclei count of "COc1cccc(-c2cc(C(=O)N3CCCCCC3)no2)c1" , please.
Result block: 116

Query block: Recorded nuclei count of CCOC(=O)NC(Nc1sc2c(c1C(N)=O)CCCC2)(C(=O)OCC)C(F)(F)F (configuration not stated) , please.
Result block: 144

Query block: Recorded nuclei count of "CC(=O)Nc1ccc(S(=O)(=O)NCc2cn3c(C)csc3n2)cc1" , please.
Result block: 84.3

Query block: Recorded nuclei count of "CCN(CC)c1nc2nonc2nc1N(CC)CC" , please.
Result block: 94.7

Query block: Recorded nuclei count of CC(C)CNC(=O)C1CC(=O)OC12CCCCC2 (configuration not stated) , please.
Result block: 107

Query block: Recorded nuclei count of COc1ccc(/C(O)=C2/C(=O)C(=O)N(c3nc(C)c(C)s3)C2c2ccco2)cc1 (configuration not stated) , please.
Result block: 196

Query block: Recorded nuclei count of "CCOCC(=O)Nc1sc2c(c1C(=O)OCC)CCCC2" , please.
Result block: 116

Query block: Recorded nuclei count of "CC(=O)c1cccc(S(=O)(=O)N2CCC(n3nnc4cc(F)ccc43)CC2)c1" , please.
Result block: 93.6

Query block: Recorded nuclei count of "CCc1nc(NC2CCCCC2)c(C#N)c2c1COC(C)(C)C2" , please.
Result block: 153

----------
A collection of molecules and their measured fluorescence slope
Target: Voltage-gated potassium channel subunit beta-2 (Rattus norvegicus) (UniProt P62483)
Assay: KvBeta enzyme negative modulators, primary screen, biochemical, NADPH fluorescence (AID 622);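 further: slope of raw intensity against log time taken from 70 to 1610 s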
Conditions: recombinant KvBeta, 4-cyanobenzaldehyde reduction, at 10 µM, stronger effect = higher value
No unit in the answer, only the number.

# annotated cases, reported fluorescence slope shown
Molecule: CN(Cc1ccccc1)c1ncnc2ccc(Br)cc12
System Tested: Voltage-gated potassium channel subunit beta-2 (Rattus norvegicus) (UniProt P62483)
fluorescence slope: -0.517
//
Molecule: Cn1c(=O)[nH]c(=O)c2c1nc(Br)n2CCSc1ncccn1
System Tested: Voltage-gated potassium channel subunit beta-2 (Rattus norvegicus) (UniProt P62483)
fluorescence slope: -0.446

Query block: Recorded fluorescence slope of "CCOC(=O)CSc1nnc(Cn2c(=O)sc3ccccc32)n1C" , please.
Result block: -0.576

Query block: Recorded fluorescence slope of "COCC(=O)Nc1c(C(=O)Nc2ccccc2OC)oc2ccccc12" , please.
Result block: -0.318

Query block: Recorded fluorescence slope of "COCCCNC(=O)c1c(N)n(/N=C/c2ccccn2)c2nc3ccccc3nc12" , please.
Result block: -0.424

Query block: Recorded fluorescence slope of CCC(=NC(CC)CO)C1=C(O)CC(C)(C)CC1=O (stereo unspecified) , please.
Result block: -0.519

Query block: Recorded fluorescence slope of "C=C(C)CSc1nc(N)c2c3c(sc2n1)CCC3" , please.
Result block: -0.451

Query block: Recorded fluorescence slope of "COc1cc(C(=O)OCC(=O)N(C)Cc2ccccc2)cc(OC)c1OC" , please.
Result block: -0.535

Query block: Recorded fluorescence slope of O=C1c2ccccc2C(Nc2ccc(-c3nc4ccccc4[nH]3)cc2)N1Cc1ccco1 (stereo unspecified) , please.
Result block: -0.589

Query block: Recorded fluorescence slope of "CC1(C)Cc2c(c(N3CCOCC3)nc3sc4c(NCc5ccco5)nnnc4c23)CS1" , please.
Result block: -0.419

Query block: Recorded fluorescence slope of CCOc1ccc(C2CC(=O)NC3=C2C(=O)CCC3)cc1Cl (stereo unspecified) , please.
Result block: -0.407
